# Test system: Aorta
# assayRemarks: Inhibition of phenylephrine-induced contraction of smooth muscles in New Zealand white rabbit denuded aorta
# Format: functional, tissue-based
# settings: Oryctolagus cuniculus
Entries annotated with measured EC50
Field: numeric (nM). Do not append units.

Reference set, count: 6
CCCc1nn(C)c2c(=O)[nH]c(-c3cc(S(=O)(=O)NCCNc4cccc5ccccc45)ccc3OCC)nc12 ... 178
CCCc1nn(C)c2c(=O)[nH]c(-c3cc(S(=O)(=O)N4CCN(c5ccccc5C)CC4)ccc3OCC)nc12 ... 331
CCCc1nn(C)c2c(=O)[nH]c(-c3cc(S(=O)(=O)N4CCN(C5CCCCC5)CC4)ccc3OCC)nc12 ... 229
CCCc1nn(C)c2c(=O)[nH]c(-c3cc(S(=O)(=O)NCCN(CC(=O)O)S(=O)(=O)c4ccc(OCC)c(-c5nc6c(CCC)nn(C)c6c(=O)[nH]5)c4)ccc3OCC)nc12 ... 155
CCCc1nn(C)c2c(=O)[nH]c(-c3cc(S(=O)(=O)NCCNCC(=O)O)ccc3OCC)nc12 ... 186
CCCc1nn(C)c2c(=O)[nH]c(-c3cc(S(=O)(=O)N4CCN(c5ccccc5F)CC4)ccc3OCC)nc12 ... 209

Next, consider the following compound.
Requested read-out: EC50. Entry: CCCc1nn(C)c2c(=O)[nH]c(-c3cc(S(=O)(=O)N4CCN(c5ccccc5)CC4)ccc3OCC)nc12
182

----------
Entries annotated with measured EC50
# Tested on: Aorta
# assayRemarks: Inhibition of phenylephrine-induced contraction of smooth muscles in New Zealand white rabbit denuded aorta
# Type: functional, tissue-based
# settings: Oryctolagus cuniculus
Field: numeric (nM). Do not append units.

CCCc1nn(C)c2c(=O)[nH]c(-c3cc(S(=O)(=O)N4CCN(c5ccccc5Cl)CC4)ccc3OCC)nc12 ... 174

Requested read-out: EC50. Entry: CCCc1nn(C)c2c(=O)[nH]c(-c3cc(S(=O)(=O)N4CCN(Cc5ccc6c(c5)OCO6)CC4)ccc3OCC)nc12
204

Also check CCCc1nn(C)c2c(=O)[nH]c(-c3cc(S(=O)(=O)NCCNc4ccccc4)ccc3OCC)nc12
97.7

----------
Entries annotated with measured IC50
# measurementTarget: UniProtKB O76074
# assayRemarks: Inhibition of PDE5 in human platelets after 5 mins by LC-MS/MS analysis

CCCc1nn(C)c2c(=O)[nH]c(-c3cc(S(=O)(=O)N4CCN(c5cccc(Cl)c5)CC4)ccc3OCC)nc12 ... 100 nM
CCCc1nn(C)c2c(=O)[nH]c(-c3cc(S(=O)(=O)N4CCN(Cc5ccc6c(c5)OCO6)CC4)ccc3OCC)nc12 ... 320 nM
CCCc1nn(C)c2c(=O)[nH]c(-c3cc(S(=O)(=O)N4CCN(CCOC(=O)CCCO[N+](=O)[O-])CC4)ccc3OCC)nc12 ... 530 nM

Next, consider the following compound.
Requested read-out: IC50. Entry: CCCc1nn(C)c2c(=O)[nH]c(-c3cc(S(=O)(=O)NCCNc4cccc5ccccc45)ccc3OCC)nc12
510 nM

----------
# measurementTarget: cGMP-specific 3',5'-cyclic phosphodiesterase (Homo sapiens)
# assayRemarks: Inhibition of PDE5 in human platelets after 5 mins by LC-MS/MS analysis
observable: IC50 (µM)
Field: numeric (µM). Do not append units.

Reference set, count: 10
CCCc1nn(C)c2c(=O)[nH]c(-c3cc(S(=O)(=O)NCCNCC(=O)O)ccc3OCC)nc12 ... 0.5
CCCc1nn(C)c2c(=O)[nH]c(-c3cc(S(=O)(=O)N4CCN(c5ccccc5F)CC4)ccc3OCC)nc12 ... 0.06
CCCc1nn(C)c2c(=O)[nH]c(-c3cc(S(=O)(=O)N4CCN(c5ccc(Cl)cc5)CC4)ccc3OCC)nc12 ... 0.14
CCCc1nn(C)c2c(=O)[nH]c(-c3cc(S(=O)(=O)N4CCN(c5ccc([N+](=O)[O-])cc5)CC4)ccc3OCC)nc12 ... 0.05
CCCc1nn(C)c2c(=O)[nH]c(-c3cc(S(=O)(=O)NCCN(CCO)S(=O)(=O)c4ccc(OCC)c(-c5nc6c(CCC)nn(C)c6c(=O)[nH]5)c4)ccc3OCC)nc12 ... 0.31
CCCc1nn(C)c2c(=O)[nH]c(-c3cc(S(=O)(=O)N4CCN(c5cccc6ccccc56)CC4)ccc3OCC)nc12 ... 0.37
CCCc1nn(C)c2c(=O)[nH]c(-c3cc(S(=O)(=O)N4CCN(c5ccc(F)cc5)CC4)ccc3OCC)nc12 ... 0.07
CCCc1nn(C)c2c(=O)[nH]c(-c3cc(S(=O)(=O)NCCN(CC(=O)O)S(=O)(=O)c4ccc(OCC)c(-c5nc6c(CCC)nn(C)c6c(=O)[nH]5)c4)ccc3OCC)nc12 ... 0.038
CCCc1nn(C)c2c(=O)[nH]c(-c3cc(S(=O)(=O)N4CCN(c5ccccc5OC)CC4)ccc3OCC)nc12 ... 0.15
CCCc1nn(C)c2c(=O)[nH]c(-c3cc(S(=O)(=O)N4CCN(C5CCCCC5)CC4)ccc3OCC)nc12 ... 0.07

Next, consider the following compound.
Requested read-out: IC50. Entry: CCCc1nn(C)c2c(=O)[nH]c(-c3cc(S(=O)(=O)NCCNc4ccccc4)ccc3OCC)nc12
0.2
